Data provenance is PubChem BioAssay (NCI).

# System: SF-268 CNS
# protocol_text: NCI-60 one-dose screen, 48 h (100 = growth as untreated, 0 = no growth, -100 = all killed)
# conditions_used: 10 µM unless noted
About 83,000 compounds went through this panel and 20% of them were active in at least one assay; those are over-represented in the sample as a whole.

{"compound": "C=C(C)[C@@H]1CC[C@]2(C(=O)N3CCNCC3)CC[C@]3(C)[C@H](CC[C@@H]4[C@@]5(C)C/C(=C/c6ccncc6)C(=O)C(C)(C)[C@@H]5CC[C@]43C)[C@@H]12", "growth, %": 103}
{"compound": "COc1cc(/C=C/c2cc(/C=C/c3ccc(O)c(OC)c3)n(C(N)=O)n2)ccc1O", "growth, %": -10.7}
{"compound": "Cn1ccc(=O)c(S(N)(=O)=O)c1", "growth, %": 100}
{"compound": "CN(CCCCN(C[C@H]1Cc2ncccc2CN1)[C@H]1CCCc2cccnc21)C1CCC(F)(F)CC1", "growth, %": 87.8}
{"compound": "N=c1ccc2nc3ccc(N)cc3sc-2c1", "growth, %": 39.7}
{"compound": "O=C(Nc1cccc(-n2cc(-c3ccncc3)c(-c3ccc(Cl)c(O)c3)n2)c1)c1ccccc1", "growth, %": 68.3}
{"compound": "COc1ccc(C2CC(c3ccc(OC)cc3OC)=NN2c2ccc(S(N)(=O)=O)cc2)cc1 (centres undefined)", "growth, %": 161}
{"compound": "Nc1nc(=O)c2ccccc2s1", "growth, %": 113}
{"compound": "O=C1NN(C(=O)c2ccc(Cl)cc2)C(c2ccccc2)=N/C1=C\\c1cn(-c2ccccc2)nc1-c1ccccc1", "growth, %": 94.8}

====

Recorded growth values for a group of compounds are listed next.
# System: OVCAR-8 ovarian
# protocol_text: NCI-60 one-dose screen, 48 h (100 = growth as untreated, 0 = no growth, -100 = all killed)
# conditions_used: 10 µM unless noted
This is part of a sample that, as a whole, favours compounds with a hit. Of some 83,000 tested, about 20% had one in any assay.

{"compound": "COc1cccc(-c2cc3c(O)cc(C#N)cc3[nH]2)c1", "u": "%", "growth": 106}
{"compound": "Clc1cc2c(nn1)Nc1ccccc1S2", "u": "%", "growth": 96.2}
{"compound": "Cc1ccc(S(=O)(=O)n2cc(C(=O)C(=O)Nc3ccncc3)c3ccccc32)cc1", "u": "%", "growth": 43.2}
{"compound": "O=C1/C(=C/c2ccccc2)CN(C(=O)CCN2CCC(=NO)CC2)C/C1=C\\c1ccccc1", "u": "%", "growth": 13.6}
{"compound": "O=c1cc/c(=N\\Nc2ccccc2)c(=O)/c1=N/Nc1ccccc1", "u": "%", "growth": 109}
{"compound": "Cc1nc2ncccc2nc1Nc1ccc(S(=O)(=O)Nc2cncs2)cc1", "u": "%", "growth": 103}
{"compound": "COc1ccc(Nc2nn3c(-c4ccccc4)cc(-c4ccccc4)nc3c2C(N)=O)c(OC)c1", "u": "%", "growth": 27.8}
{"compound": "O=C(CSc1nc2ccccc2[nH]1)Nc1ccc(-c2nc3ccccc3s2)c(Cl)c1", "u": "%", "growth": -9.6}
{"compound": "CCN(CC)CCCC(C)Nc1c2ccc(Cl)cc2nc2cc(OC)c(OC)cc12 (stereo unspecified)", "u": "%", "growth": 14.1}
{"compound": "Cc1cc(C2(c3cc(C)c(O)cc3C)OS(=O)(=O)c3ccccc32)c(C)cc1O", "u": "%", "growth": 103}
{"compound": "Oc1ccccc1/C=N/NC(=S)NC1CC2C=CC1C2 (stereo unspecified)", "u": "%", "growth": 84.3}
{"compound": "O=C(Oc1ccccc1[N+](=O)[O-])C1CCCN1C(=O)OCc1ccccc1 (stereo unspecified)", "u": "%", "growth": 97.5}
{"compound": "CCCCCCCCCCCCNC(=O)[C@H]1CSC(c2cc(Br)cs2)N1 (stereo partly specified)", "u": "%", "growth": -64.8}
{"compound": "COc1cc(/C=C/C(=O)N2CCN(C(=O)/C=C/c3cc(OC)c(OC)c(OC)c3)CC2)cc(OC)c1OC", "u": "%", "growth": 96.4}
{"compound": "COc1ccc(C(=O)NC(=O)Nc2cc3c(cc2F)/C(=C/c2[nH]c(C)c(CCC(=O)O)c2C)C(=O)N3)c(F)c1", "u": "%", "growth": 6.72}
{"compound": "CC(=O)Oc1csc(N(C(C)=O)c2cccc(C(F)(F)F)c2)n1", "u": "%", "growth": 94.1}
{"compound": "CC(C)NCCCNC1=C(Cl)C(=O)c2ccccc2C1=O", "u": "%", "growth": 56.9}
{"compound": "CC1=NC2=CC=CC3=NC(C(Cl)(Cl)Cl)=NC(=N1)N23", "u": "%", "growth": 84.9}
{"compound": "CC(C)(C)n1cc(-c2ccnc(NCCCNS(=O)(=O)c3cccc(F)c3)c2)c(-c2cccc(O)c2)n1", "u": "%", "growth": 57.5}
{"compound": "O=C(Nc1cccc(-n2cc(-c3ccncc3)c(-c3ccc(Cl)c(O)c3)n2)c1)Nc1cccc(C(F)(F)F)c1", "u": "%", "growth": 10.6}
{"compound": "COc1ccc(C2C(C#N)=C(N)Oc3c2ccc2ccccc32)cc1 (stereo unspecified)", "u": "%", "growth": 56.5}
{"compound": "O=C(NCCCNc1nccc(-n2ccc3cccnc32)n1)c1c(F)cccc1F", "u": "%", "growth": 107}
{"compound": "NC1=NN(O)C2=CC([N+](=O)[O-])C=CC2=N1 (stereo unspecified)", "u": "%", "growth": 99.4}
{"compound": "O=C(Nc1ccncc1)C(=O)c1cn(S(=O)(=O)c2ccccc2F)c2ccccc12", "u": "%", "growth": 35.2}
{"compound": "O=C([O][Sn]([O]C(=O)c1ccccn1)([c]1ccccc1)[c]1ccccc1)c1ccccn1", "u": "%", "growth": 93.6}
{"compound": "O=c1[nH]c(Nc2ccc(S(=O)(=O)O)cc2)nc2nc(Nc3ccc(NC(=S)Nc4ccccc4)cc3)nc(-c3ccc(O)cc3O)c12", "u": "%", "growth": 55.5}
{"compound": "Clc1cc(Cl)c2nc(-c3ccc(-c4ccc(/C=N/NC5=NCCN5)cc4)s3)cn2c1", "u": "%", "growth": 97.9}
{"compound": "CCOC(=O)c1ccc2c(c1)c1c(C)c3cccnc3c(C)c1n2C", "u": "%", "growth": 46.2}
{"compound": "CCCCNC(=O)Oc1ccc(/C(=C(\\C)c2ccccc2)c2ccc(OCCN(CC)CC)cc2)cc1", "u": "%", "growth": 77}
{"compound": "CC(C)(C)n1cc(-c2ccnc(NCCCNS(=O)(=O)c3ccc(C(F)(F)F)cc3)c2)c(-c2cccc(O)c2)n1", "u": "%", "growth": 28}
{"compound": "CCOC(=O)NNC(=S)Nc1ccccc1", "u": "%", "growth": 102}
{"compound": "O=C1/C(=C/c2ccc([N+](=O)[O-])cc2)CN(C(=O)CCN2CCC(=NO)CC2)C/C1=C\\c1ccc([N+](=O)[O-])cc1", "u": "%", "growth": 6.6}
{"compound": "CC1=C(C#N)C(=O)NC(C)C1 (stereo unspecified)", "u": "%", "growth": 102}
{"compound": "COC(=O)c1cc(=O)nc(N/N=C/c2ccco2)s1", "u": "%", "growth": 107}
{"compound": "Cc1ccc(S(=O)(=O)C2=C3C(=C(c4ccccc4)c4ccccc43)CN(S(=O)(=O)c3ccc(C)cc3)C2)cc1", "u": "%", "growth": 21.8}
{"compound": "C=C(C)[C@@H]1C[C@@H]2Cc3cc(Cl)ccc3N1O2", "u": "%", "growth": 108}
{"compound": "COc1cc(Nc2nc(N[C@H]3CCCC[C@@H]3N)nc3cc[nH]c(=O)c23)cc(OC)c1", "u": "%", "growth": 14.5}
{"compound": "CCN(CC)CCOC(=O)C(c1ccccc1)(c1ccccc1)C(C)C", "u": "%", "growth": 87}
{"compound": "COc1ccc2c(c1)[nH]c(=O)c1c3cc(C)c(C)cc3cn21", "u": "%", "growth": -27.5}
{"compound": "CC(C)OC(=O)N1CCOCC1", "u": "%", "growth": 95.6}
{"compound": "COc1ccc(C(=O)c2cc(OC)c3c(c2)OCO3)cc1O", "u": "%", "growth": 17.8}

====

# Tested on: OVCAR-5 ovarian
# protocol_text: NCI-60 one-dose screen, 48 h
# conditions_used: 10 µM unless noted
The panel holds about 83,000 compounds, 20% with a hit somewhere; the sample as a whole holds those more often. Active and inactive are the calls of the source. How the source made its calls: active means growth percent below 10; inactive means the rest.
Labels: T for active, F for inactive

{"compound": "CCCCCCCCCCCCNC(=O)[C@H]1CSC(c2ccsc2)N1 (stereo not given in full)", "experimental_system": "OVCAR-5 ovarian", "class": "T"}
{"compound": "O=c1c2sc3ncccc3c2nnn1-c1ccccc1", "experimental_system": "OVCAR-5 ovarian", "class": "F"}
{"compound": "CCOC(=O)CN1/C(=N/c2sc3c(c2C(=O)OCC)CCN(C(=O)OCC)C3)SC(=O)/C1=C\\C(=O)OC", "experimental_system": "OVCAR-5 ovarian", "class": "F"}
{"compound": "Nc1cc2c(cc1C(=O)c1cccc(F)c1)OCCO2", "experimental_system": "OVCAR-5 ovarian", "class": "F"}
{"compound": "O=c1[nH]c(Nc2ccc(S(=O)(=O)O)cc2)nc2nc(Nc3ccc(NC(=S)Nc4ccccc4)cc3)nc(-c3ccc(O)cc3O)c12", "experimental_system": "OVCAR-5 ovarian", "class": "F"}
{"compound": "O=C1NC(=C(Cl)Cl)/C(=N/S(=O)(=O)N2CCC(C3(C(F)(F)F)N=N3)CC2)N1", "experimental_system": "OVCAR-5 ovarian", "class": "F"}
{"compound": "Fc1ccc(CNCCNc2ncnc3c2cnn3-c2ccccc2)cc1", "experimental_system": "OVCAR-5 ovarian", "class": "F"}
{"compound": "CCN1CCN(CC(=O)N2c3cccc4cccc(c34)N(C(=O)CN3CCN(CC)CC3)C2c2cn(-c3ccccc3)nc2-c2cccc([N+](=O)[O-])c2)CC1", "experimental_system": "OVCAR-5 ovarian", "class": "T"}
{"compound": "COc1ccc(Nc2ncccc2C(=O)NCc2cn(Cc3cccc(Oc4ccccc4)c3)nn2)cc1", "experimental_system": "OVCAR-5 ovarian", "class": "F"}
{"compound": "C=C1c2nc3ccccc3n2C=C(c2ccc(Cl)cc2)N1Cc1ccccc1", "experimental_system": "OVCAR-5 ovarian", "class": "F"}
